Molecular target: Adrenergic receptor alpha-2 (Rattus norvegicus, UniProt P22086+P19328+P22909)
Experiment: Antagonistic activity against presynaptic alpha-2 adrenergic receptor in isolated rat vas deferens using xylazine as agonist
Assay type: functional, tissue-based
assayReadout: pA2

COc1cc2c(cc1OC)[C@@H]1C[C@@H]3C[C@H](O)CC[C@@H]3CN1CC2	6.31
Oc1cc2c(cc1O)[C@@H]1C[C@@H]3C[C@H](O)CC[C@@H]3CN1CC2	5.74
CCOc1cc2c(cc1OCC)[C@@H]1C[C@@H]3C[C@H](O)CCC3CN1CC2 (stereo partly specified)	6.41
COc1cc2c(cc1OC)[C@@H]1C[C@@H]3C[C@H](OC(C)=O)CC[C@@H]3CN1CC2	6.61
N#C[C@@H]1C[C@@H]2CN3CCc4cc5c(cc4[C@@H]3C[C@@H]2C[C@@H]1O)OCO5	6.1
CC(=O)O[C@@H]1CC[C@@H]2CN3CCc4cc5c(cc4[C@@H]3C[C@@H]2C1)OCO5	7.3

Source of measurements: ChEMBL document CHEMBL1123932
